Tested on: indomethacin induced gastric damage in the rat
Test: Anti-ulcer activity: inhibition of indomethacin induced gastric damage
Assay type: in vivo
Conditions: po, 5 h, Table 2, 100 mg/kg orally, 30 min prior to and 2 h after indomethacin 15 mg/kg s.c.
Description: This was assessed by the inhibition of indomethacin induced gastric damage in the rat according to the method of Elegbe (Israeli J. Med. Sci. 10, 1451 (1974)). Rats were starved overnight, given indomethacin subcutaneously (15 mg/kg) and sacrificed 5 hours later. Stomachs were inflated with 0.9% saline, cut along the greater curvature, pinned out and scored for gastric damage by the following system: Score 1-3 according to the degree of erythema and slight haemorrhage. […]
Quick list: inhibition in vivo at 100 mg/kg per entry.
quantity-kind: inhibition in vivo at 100 mg/kg (%)

[[record]]
smiles_repr = "CON=C(c1ccccc1)c1nccn1C"
test_value = 91

[[record]]
smiles_repr = "CN(C)CCCON=C(c1ccccc1)c1cnccn1"
test_value = 92

[[record]]
smiles_repr = "CO/N=C(\\c1ccccc1)c1nccs1"
test_value = 89

[[record]]
smiles_repr = "C#CCON=C(c1ccccc1)c1cnccn1"
test_value = 53

[[record]]
smiles_repr = "CO/N=C(/c1ccc(Cl)cc1)c1cnccn1"
test_value = 68

[[record]]
smiles_repr = "N#CCON=C(c1ccccc1)c1cnccn1"
test_value = 93

[[record]]
smiles_repr = "CN(C)CCCON=C(c1ccccc1)c1ncc[nH]1"
test_value = 56

[[record]]
smiles_repr = "C=CCON=C(c1ccccc1)c1cnccn1"
test_value = 56

[[record]]
smiles_repr = "CO/N=C(/c1ccccc1)c1ncc[nH]1"
test_value = 91


The values you see were collected from patent US4352804A.
